Just for reference, the supplement of paper PMC9112550 is where these values come from.

- Test system: Escherichia coli TOP10
- experimental-details: shrunken log2 fold change of peptide-encoding DNA abundance (4.5 h post-induction vs induction); higher = less antimicrobial activity (less host growth inhibition)
- conditions-used: time post-induction: 4.5 h; library: site-saturation at positions 5, 18, 19, 20
shrunken log2 fold change below -0.2 gives NOT MET; shrunken log2 fold change at or above it gives MET.

>>> assigned_class("RRIRGRPPRLPRPRPRPWMVPRP")
"MET"
>>> assigned_class("RRIRIRPPRLPRPRPRPGHKPRP")
"NOT MET"
>>> assigned_class("RRIRSRPPRLPRPRPRPRHPPRP")
"MET"
>>> assigned_class("RRIRGRPPRLPRPRPRPSRWPRP")
"MET"
>>> assigned_class("RRIRERPPRLPRPRPRPDMFPRP")
"MET"
>>> assigned_class("RRIRERPPRLPRPRPRPSARPRP")
"MET"
>>> assigned_class("RRIRCRPPRLPRPRPRPMFWPRP")
"NOT MET"

====

- Test system: Escherichia coli TOP10
- experimental-details: shrunken log2 fold change of peptide-encoding DNA abundance (4.5 h post-induction vs induction); higher = less antimicrobial activity (less host growth inhibition)
- conditions-used: time post-induction: 4.5 h; library: site-saturation at positions 5, 18, 19, 20
attribute-measured: shrunken log2 fold change

>>> measurement("RRIRLRPPRLPRPRPRPDGQPRP")
0.00145
>>> measurement("RRIRNRPPRLPRPRPRPWHRPRP")
0.049
>>> measurement("RRIRPRPPRLPRPRPRPKANPRP")
0.0243
>>> measurement("RRIRARPPRLPRPRPRPKCLPRP")
0.613
>>> measurement("RRIRFRPPRLPRPRPRPSKRPRP")
-0.565
>>> measurement("RRIRMRPPRLPRPRPRPEYGPRP")
0.132
>>> measurement("RRIRVRPPRLPRPRPRPWNDPRP")
-0.0722

====

// reported shrunken log2 fold change for each item listed
- Tested on: Escherichia coli TOP10;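 note: peptides expressed intracellularly from a pBAD plasmid library in pooled LB shake-flask culture, induced with 0.3% L-arabinose, DNA abundance read by NGS, three biological replicates, DESeq2 with apeglm shrinkage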
- experimental-details: shrunken log2 fold change of peptide-encoding DNA abundance (4.5 h post-induction vs induction); higher = less antimicrobial activity (less host growth inhibition)
- conditions-used: time post-induction: 4.5 h; library: site-saturation at positions 5, 18, 19, 20
attribute-measured: shrunken log2 fold change

>>> measurement("RRIRPRPPRLPRPRPRPNTWPRP")
0.272
>>> measurement("RRIRFRPPRLPRPRPRPMTSPRP")
-0.552
>>> measurement("RRIRRRPPRLPRPRPRPQFVPRP")
0.153
>>> measurement("RRIRRRPPRLPRPRPRPAQSPRP")
0.247
>>> measurement("RRIRHRPPRLPRPRPRPSLYPRP")
0.07
>>> measurement("RRIRFRPPRLPRPRPRPPQRPRP")
0.617
>>> measurement("RRIRPRPPRLPRPRPRPELFPRP")
0.25
>>> measurement("RRIRVRPPRLPRPRPRPDQSPRP")
-0.053
>>> measurement("RRIRVRPPRLPRPRPRPPASPRP")
0.398
>>> measurement("RRIRKRPPRLPRPRPRPHTQPRP")
0.13
>>> measurement("RRIRSRPPRLPRPRPRPDWEPRP")
-0.0106
>>> measurement("RRIRIRPPRLPRPRPRPNVTPRP")
-0.149
>>> measurement("RRIRGRPPRLPRPRPRPQHVPRP")
-0.12
>>> measurement("RRIRARPPRLPRPRPRPPQGPRP")
0.689
>>> measurement("RRIRGRPPRLPRPRPRPHVWPRP")
0.201
>>> measurement("RRIRMRPPRLPRPRPRPHIQPRP")
-0.421
>>> measurement("RRIRCRPPRLPRPRPRPDPSPRP")
-0.0265
>>> measurement("RRIRMRPPRLPRPRPRPACWPRP")
1.06
>>> measurement("RRIRQRPPRLPRPRPRPSGLPRP")
-0.0802
>>> measurement("RRIRRRPPRLPRPRPRPRSLPRP")
-0.0226
>>> measurement("RRIRYRPPRLPRPRPRPLNKPRP")
-0.449
>>> measurement("RRIRERPPRLPRPRPRPHRVPRP")
0.0121
>>> measurement("RRIRYRPPRLPRPRPRPVIEPRP")
-0.424
>>> measurement("RRIRMRPPRLPRPRPRPRSLPRP")
0.27
>>> measurement("RRIRIRPPRLPRPRPRPYKEPRP")
0.0131
>>> measurement("RRIRYRPPRLPRPRPRPYPRPRP")
-0.097
>>> measurement("RRIRGRPPRLPRPRPRPHNRPRP")
0.0391
>>> measurement("RRIRDRPPRLPRPRPRPSWGPRP")
0.0384
>>> measurement("RRIRIRPPRLPRPRPRPFYEPRP")
-0.231
>>> measurement("RRIRHRPPRLPRPRPRPKSGPRP")
-0.242
>>> measurement("RRIRERPPRLPRPRPRPKTFPRP")
0.0567
>>> measurement("RRIRGRPPRLPRPRPRPDTIPRP")
0.0799
>>> measurement("RRIRNRPPRLPRPRPRPAVHPRP")
-0.0211
>>> measurement("RRIRFRPPRLPRPRPRPCCLPRP")
-0.725
>>> measurement("RRIRLRPPRLPRPRPRPTYNPRP")
-0.869
>>> measurement("RRIRSRPPRLPRPRPRPWHEPRP")
-0.103
>>> measurement("RRIRTRPPRLPRPRPRPRMEPRP")
-0.0325
>>> measurement("RRIRARPPRLPRPRPRPGGWPRP")
1.26
>>> measurement("RRIRNRPPRLPRPRPRPSWEPRP")
-0.32
>>> measurement("RRIRIRPPRLPRPRPRPQCEPRP")
-0.0436
>>> measurement("RRIRRRPPRLPRPRPRPLTAPRP")
0.337
>>> measurement("RRIRIRPPRLPRPRPRPHSYPRP")
-0.244
>>> measurement("RRIRIRPPRLPRPRPRPTIDPRP")
-0.356
